The reported numbers originate from patent US20260250289A1.

Kindly state IC50 for each of the entries shown.
Target: WRN helicase (aa N517-P1238) (Homo sapiens)
Construct: The core helicase motif of the WRN protein (aa N517-P1238) was produced for this assay; His (N); ZZ (N); 3C protease cleavage site (N); virus and BIICs made in SF9)
Sequence (Q14191 517-1238): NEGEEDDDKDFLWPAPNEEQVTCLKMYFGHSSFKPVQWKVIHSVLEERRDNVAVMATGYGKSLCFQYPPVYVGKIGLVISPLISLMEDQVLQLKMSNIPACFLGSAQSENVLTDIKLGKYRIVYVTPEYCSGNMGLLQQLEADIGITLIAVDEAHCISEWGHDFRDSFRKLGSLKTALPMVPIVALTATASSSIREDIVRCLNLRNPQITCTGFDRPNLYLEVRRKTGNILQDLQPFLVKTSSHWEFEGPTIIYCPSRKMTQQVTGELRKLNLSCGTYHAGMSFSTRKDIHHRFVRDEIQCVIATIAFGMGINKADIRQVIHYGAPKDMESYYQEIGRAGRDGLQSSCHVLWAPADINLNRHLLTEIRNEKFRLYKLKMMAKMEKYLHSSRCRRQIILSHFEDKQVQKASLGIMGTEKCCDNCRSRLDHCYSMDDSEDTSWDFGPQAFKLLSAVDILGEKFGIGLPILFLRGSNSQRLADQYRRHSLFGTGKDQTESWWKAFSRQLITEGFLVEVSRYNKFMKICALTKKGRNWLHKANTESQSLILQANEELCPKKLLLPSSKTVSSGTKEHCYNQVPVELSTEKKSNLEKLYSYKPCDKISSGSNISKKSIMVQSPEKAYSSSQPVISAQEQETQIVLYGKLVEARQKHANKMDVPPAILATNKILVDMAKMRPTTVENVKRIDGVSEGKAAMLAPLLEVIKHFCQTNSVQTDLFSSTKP
Experiment: WRN ATPase assay (DNA dependent ATP hydrolysis, ADP-Glo)
Conditions: 3 hours pre-incubation, 300 micromolar ATP, FLAP26 DNA; geometric mean of at least 2
Method: An ATPase assay was set up to measure the DNA dependent ATP hydrolysis activity of WRN helicase. This assay was used also to assess the inhibition properties of compounds of the invention on DNA dependent WRN ATPase activity. […] To evaluate the inhibition properties of compounds of the invention, serial dilutions were prepared in DMSO (10 half log dilutions from a 10 mM DMSO solution). […] Afterwards, 10 microliters of ATP detection reagent was added and incubated for an additional hour before reading. […]

Entry CC(=O)N1CCN(c2c(C)n(CC(=O)Nc3ccc(C(F)(F)F)cc3)c3nc(C4=CCC5(CCO5)CC4)nn3c2=O)CC1 (stereo not drawn) : reported IC50 = ?
600 nM

What does the data say about its IC50? Entry: COC1CCN(c2nc3n(CC(=O)Nc4ccc(C(F)(F)F)cc4)c(C)c(N4CCN(C(C)=O)CC4)c(=O)n3n2)CC1
700 nM

Item under review: CCc1c(N2CCN(C(C)=O)CC2)c(=O)n2nc(C3=CCOCC3)nc2n1CC(=O)Nc1ccc(C(F)(F)F)cc1 . Reported IC50?
100 nM

Name the reported IC50 value associated with the compound CC(=O)N1CCN(c2nc3n(CC(=O)Nc4ccc(Cl)cc4)c(C)c(N4CCN(C(=O)c5nc[nH]c5C#N)CC4)c(=O)n3n2)CC1
40 nM

What IC50 value was documented for this compound, Cc1c(N2CCN(C(=O)c3cc(C#N)n[nH]3)CC2)c(=O)n2nc(C3=CCOCC3)nc2n1CC(=O)Nc1ccc(C(F)(F)F)cc1 ?
50 nM

Form field: reported IC50 of CCc1c(N2CCN(C(=O)c3ncnc(C)c3OC)CC2)c(=O)n2nc(C3=CCOCC3)nc2n1CC(=O)Nc1ccc(C(F)(F)F)cc1C
5000 nM

====

Please provide measured GI50 for the entries that follow.
Test system: DLD1-WRN-KO cells
Test: Proliferation assay DLD1-WRN-KO (CellTiterGlo, off-target effects)
Type: cell-based
Settings: 96 hours, geometric mean of at least 2

What value of GI50 has been reported for the following molecule? Cc1c(N2CCN(C(=O)c3cccnc3O)CC2)c(=O)n2nc(C3=CCOCC3)nc2n1CC(=O)Nc1ccc(C(F)(F)F)cc1
> 10 µM

What measured GI50 goes with CC(=O)N1CCN(c2c(C)n(CC(=O)Nc3ccc(C(F)(F)F)cc3)c3nc(N4CCCC(F)C4)nn3c2=O)CC1 (stereo not shown) ?
> 10 µM

Looking for the measured GI50 of Cc1c(N2CCN(C(=O)c3cc(F)ccc3O)CC2)c(=O)n2nc(C3=CCOCC3)nc2n1CC(=O)Nc1ccc(C(F)(F)F)cc1 , can you help?
8 µM

Request the reported GI50 associated with CC(=O)N1CCN(c2c(C)n(CC(=O)Nc3ccc(Cl)c(Cl)c3)c3nc(-c4ccc(CN(C)C(=O)OC5CC/C=C/CCC5)cc4)nn3c2=O)CC1 (stereo not shown)
5 µM

Report GI50 for CC(=O)N1CCN(c2c(C)n(CC(=O)Nc3ccc(S(F)(F)(F)(F)F)cc3Cl)c3nc(C4=CCOCC4)nn3c2=O)CC1 please.
> 10 µM

Which value of GI50 has been reported for Cc1c(N2CCN(C(=O)c3cncc(F)c3O)CC2)c(=O)n2nc(C3=CCOCC3)nc2n1CC(=O)Nc1ccc(C(F)(F)F)cc1 in the records?
> 10 µM

Requested field: GI50. Item: CC(=O)N1CCN(c2c(C)n(CC(=O)Nc3cc(F)c(C(F)(F)F)cc3Cl)c3nc(C4=CCOCC4)nn3c2=O)CC1
> 10 µM

Name the recorded GI50 for CCc1c(N2CCN(C(=O)c3ccnc(C)c3O)CC2)c(=O)n2nc(C3=CCCCO3)nc2n1CC(=O)Nc1ccc(C(F)(F)F)cc1Cl .
> 10 µM

GI50 for CC(=O)N1CCN(c2nc3n(CC(=O)Nc4ccc(Cl)cc4)c(C)c(N4CCN(C(=O)c5cnon5)CC4)c(=O)n3n2)CC1 ?
> 10 µM

Sample CCc1c(N2CCN(C(=O)CN)CC2)c(=O)n2nc(C3=CCC(OC)CC3)nc2n1CC(=O)Nc1ccc(C(F)(F)F)cc1 (stereo not shown) — what was its GI50?
> 10 µM

// query GI50 value for entry CC(=O)N1CCN(c2c(C)n(CC(=O)Nc3ccc(C(F)(F)F)cc3)c3nc(C4=CCCO4)nn3c2=O)CC1
> 10 µM

Fill blank: measured GI50 of the molecule CCc1c(N2CCN(C(=O)C3CCOC3)CC2)c(=O)n2nc(C3=CCCCO3)nc2n1CC(=O)Nc1ccc(C(F)(F)F)cc1 (stereo not shown) [Example 56] is ____.
> 10 µM

Fill in: GI50 of COCC1=CCN(c2nc3n(CC(=O)Nc4ccc(C(F)(F)F)cc4)c(C)c(N4CCN(C(C)=O)CC4)c(=O)n3n2)CC1 is ___
> 10 µM

====

Target: WRN helicase (aa N517-P1238) (Homo sapiens)
Construct: The core helicase motif of the WRN protein (aa N517-P1238) was produced for this assay; His (N); ZZ (N); 3C protease cleavage site (N); made in house; host or cells: Sf21 insect cells (baculovirus; virus and BIICs made in SF9)
Assay: WRN ATPase assay (DNA dependent ATP hydrolysis, ADP-Glo)
Type: biochemical
Details: 3 hours pre-incubation, 300 micromolar ATP, FLAP26 DNA; geometric mean of at least 2
Method: An ATPase assay was set up to measure the DNA dependent ATP hydrolysis activity of WRN helicase. This assay was used also to assess the inhibition properties of compounds of the invention on DNA dependent WRN ATPase activity. […] To evaluate the inhibition properties of compounds of the invention, serial dilutions were prepared in DMSO (10 half log dilutions from a 10 mM DMSO solution). […] Afterwards, 10 microliters of ATP detection reagent was added and incubated for an additional hour before reading. […]
measured_parameter: IC50 (nM)
Report as a plain number; the unit nM is understood.

Request - read-out IC50 | tested on WRN helicase (aa N517-P1238) (Homo sapiens) | compound CC(=O)N1CCN(c2c(C)n(CC(=O)Nc3cc(F)c(C(F)(F)F)c(F)c3)c3nc(C4=CCOCC4)nn3c2=O)CC1
4000

IC50 of CCc1c(N2CCN(C(=O)c3nn(C)c(=O)[nH]3)CC2)c(=O)n2nc(C3=CCCC3)nc2n1CC(=O)Nc1ccc(C(F)(F)F)cc1 on WRN helicase (aa N517-P1238) (Homo sapiens)?
10

Given the entry CCc1c(N2CCN(C(=O)c3ccnc(C)c3O)CC2)c(=O)n2nc(C3=CCCCO3)nc2n1CC(=O)Nc1ccc(C(F)(F)F)cc1Cl , what IC50 was observed with WRN helicase (aa N517-P1238) (Homo sapiens)?
200

====

Task for the reader: assign each of the following molecules its reported IC50.
Molecular target: WRN helicase (aa N517-P1238) (Homo sapiens)
Construct: The core helicase motif of the WRN protein (aa N517-P1238) was produced for this assay; His (N); ZZ (N); 3C protease cleavage site (N); virus and BIICs made in SF9)
Assay: WRN ATPase assay (DNA dependent ATP hydrolysis, ADP-Glo)
Details: 3 hours pre-incubation, 300 micromolar ATP, FLAP26 DNA; geometric mean of at least 2
Express it in nM; write the number only.

Suppose we examine the molecule CCc1c(C2=CCN(C(C)=O)CC2)c(=O)n2nc(C3=CCC(OC)CC3)nc2n1CC(=O)Nc1ccc(C(F)(F)F)cc1 (stereo not drawn) ; what IC50 value has been reported?
100

Please look up its IC50: [2H]C([2H])(C(=O)Nc1ccc(C(F)(F)F)cc1)n1c(CC)c(N2CCN(C(C)=O)CC2)c(=O)n2nc(C3=CCOCC3)nc12
300

Dear colleague, I am looking for the recorded IC50 of the following molecule: CC(=O)N1CCN(c2c(C)n(CC(=O)Nc3ccc(C(F)(F)F)cc3)c3nc(N4CCCC(F)C4)nn3c2=O)CC1 (stereo not drawn)
1000

Record request: IC50 value, item Cc1c(N2CCN(C(=O)c3c(O)ccc4ccnn34)CC2)c(=O)n2nc(C3=CCOCC3)nc2n1CC(=O)Nc1ccc(C(F)(F)F)cc1
40

So what's the measured IC50 for this one? CCc1c(N2CCN(C(=O)c3cn(C)c(=O)[nH]3)CC2)c(=O)n2nc(C3=CCCC3)nc2n1CC(=O)Nc1ccc(C(F)(F)F)cc1
50

Need IC50 of Cc1c(N2CCN(C(=O)c3ccncc3O)CC2)c(=O)n2nc(C3=CCOCC3)nc2n1CC(=O)Nc1ccc(C(F)(F)F)cc1 , thanks.
100
